tested on: OVCAR-8 ovarian; assay: NCI-60 one-dose screen, 48 h (100 = growth as untreated, 0 = no growth, -100 = all killed); conditions: 10 µM unless noted
About 83,000 compounds went through this panel and 20% of them were active in at least one assay; those are over-represented in the sample as a whole.
Quick rule: growth of at least 20% means True, below that means False.

Please review the entries below; each comes with its answer.
[
  {
    "molecule": "Cc1ccc2sc3c(c2c1)OC(N)=C(C#N)C3c1cccc(F)c1 (configuration not stated)",
    "system": "OVCAR-8 ovarian",
    "assigned_label": "False"
  },
  {
    "molecule": "CCO/C=N/C1=C(C#N)C(c2ccc(Cl)cc2)c2sc3c(C)cccc3c2O1 (configuration not stated)",
    "system": "OVCAR-8 ovarian",
    "assigned_label": "True"
  },
  {
    "molecule": "C=C1CC[C@@H]2[C@](C)(CO)[C@H](O)CC[C@@]2(C)[C@@H]1C/C(O)=C1\\CCOC1=O",
    "system": "OVCAR-8 ovarian",
    "assigned_label": "True"
  },
  {
    "molecule": "O=[N+]([O-])c1cc(/C=N/Nc2nc(N/N=C/c3ccc(Cl)c([N+](=O)[O-])c3)nc(N3CCCCC3)n2)ccc1Cl",
    "system": "OVCAR-8 ovarian",
    "assigned_label": "True"
  },
  {
    "molecule": "COC(=O)c1ccc(NC2=C/C(=N/S(=O)(=O)c3ccc(C(=O)O)cc3)c3ccccc3C2=O)cc1",
    "system": "OVCAR-8 ovarian",
    "assigned_label": "False"
  }
]

Can COc1ccc(S(=O)(=O)NCCCNc2nccc(-c3cn(C(C)(C)C)nc3-c3ccc(Cl)c(OC)c3)n2)cc1 be said to have growth at or above 20%?
True

# bool: growth of CCNC(=O)N1CCc2cc(OC)c(OCCc3ccc(OC)nc3)cc2C1c1ccc(C)cc1C (configuration not stated) >= 20%
False
